testedSystem: OATP1B3 (Homo sapiens, UniProt Q9NPD5)
Sequence (Q9NPD5 whole entry): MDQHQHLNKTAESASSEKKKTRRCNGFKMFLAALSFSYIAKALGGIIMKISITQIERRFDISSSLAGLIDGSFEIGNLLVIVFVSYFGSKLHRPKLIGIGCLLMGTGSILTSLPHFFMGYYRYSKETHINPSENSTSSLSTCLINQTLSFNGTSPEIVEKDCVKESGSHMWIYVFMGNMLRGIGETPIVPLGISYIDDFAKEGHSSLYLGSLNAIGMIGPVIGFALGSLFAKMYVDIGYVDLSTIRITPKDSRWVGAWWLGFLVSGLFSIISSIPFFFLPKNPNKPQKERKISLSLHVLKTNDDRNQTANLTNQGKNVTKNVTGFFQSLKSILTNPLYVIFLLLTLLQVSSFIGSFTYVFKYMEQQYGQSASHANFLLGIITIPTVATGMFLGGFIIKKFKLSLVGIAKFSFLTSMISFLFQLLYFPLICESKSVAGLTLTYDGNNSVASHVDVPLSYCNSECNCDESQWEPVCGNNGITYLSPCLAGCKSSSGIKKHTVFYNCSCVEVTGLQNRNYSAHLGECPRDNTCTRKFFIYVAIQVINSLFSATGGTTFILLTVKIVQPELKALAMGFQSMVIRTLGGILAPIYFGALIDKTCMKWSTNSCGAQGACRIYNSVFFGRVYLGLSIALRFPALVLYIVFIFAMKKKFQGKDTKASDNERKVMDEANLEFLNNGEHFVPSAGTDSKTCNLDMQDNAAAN
methodDescription: Uptake into stable transfected OATP1B3 HEK 293 cells
Type: cell-based
conditionsUsed: 40 min incubation, relative to RC1 (Gd-EOB-DTPA)
// Uptake into OATP1B3-HEK 293 cells lookup, one value per entry

Look up Uptake into OATP1B3-HEK 293 cells of CCOCCOCCOCCOc1ccc(C[C@@H](C(=O)O)N2CCN(CC(=O)[O-])CCN(CC(=O)[O-])CCN(CC(=O)[O-])CC2)cc1.[Gd+3] [Example 11] and report it. 16 % of RC1

Return Uptake into OATP1B3-HEK 293 cells (reported value) for this compound: CCOc1ccc(CC(CN(CCN(CC(=O)[O-])CC(=O)[O-])CC(=O)[O-])N(CC(=O)[O-])CC(=O)[O-])cc1.[Gd+3].[Na+].[Na+] (stereo not drawn) [RC1, gadoxetate disodium, reference compound] 100 % of RC1

Output Uptake into OATP1B3-HEK 293 cells of CCOCCOCCOc1ccc(CCC[C@@H](C(=O)O)N2CCN(CC(=O)[O-])CCN(CC(=O)[O-])CCN(CC(=O)[O-])CC2)cc1.[Gd+3] [Example 26] 64 % of RC1

Give recorded Uptake into OATP1B3-HEK 293 cells. CCCCOc1ccc(CC(C(=O)O)N2CCN(CC(=O)[O-])CCN(CC(=O)[O-])CCN(CC(=O)[O-])CC2)cc1.[Gd+3] (stereo not drawn) [Example 14] 69 % of RC1

Annotate the compound CCOCCOc1ccc(CC(C(=O)O)N2CCN(CC(=O)[O-])CCN(C(CC)C(=O)[O-])CCN(CC(=O)[O-])CC2)cc1.[Gd+3] (single isomer, unassigned) [Example 7] with its measured Uptake into OATP1B3-HEK 293 cells. 76 % of RC1

Identify Uptake into OATP1B3-HEK 293 cells associated with the compound CCOCCOc1ccc(CC(C(=O)O)N2CCN(CC(=O)[O-])CCN(C(CC)C(=O)[O-])CCN(CC(=O)[O-])CC2)cc1.[Gd+3] (single isomer, unassigned) [Example 8] 90 % of RC1

Let me know recorded Uptake into OATP1B3-HEK 293 cells for CCOc1ccc(CCCC(C(=O)O)N2CCN(CC(=O)[O-])CCN(CC(=O)[O-])CCN(CC(=O)[O-])CC2)cc1.[Gd+3] (stereo not drawn) [Example 28] , thanks. 36 % of RC1

For CCOCCOCCOc1ccc(CC(C(=O)[O-])N2CCN(CC(=O)[O-])CCN(C(CC)C(=O)O)CCN(CC(=O)[O-])CC2)cc1.[Gd+3] (stereo not drawn) [Example 43] , write its Uptake into OATP1B3-HEK 293 cells. 111 % of RC1

Tell us which Uptake into OATP1B3-HEK 293 cells value is on record for O=C([O-])CN1CCN(C(Cc2ccc(OCC(F)(F)C(F)F)cc2)C(=O)O)CCN(CC(=O)[O-])CCN([C@@H](CO)C(=O)[O-])CC1.[Gd+3] (mixture of isomers) [Example 33] 71 % of RC1

Give Uptake into OATP1B3-HEK 293 cells for CCOCCOCCOCCOc1ccc(CC(C(=O)O)N2CCN(CC(=O)[O-])CCN(CC(=O)[O-])CCN(CC(=O)[O-])CC2)cc1.[Gd+3] (stereo not drawn) [Example 10] 13 % of RC1

Read off the recorded Uptake into OATP1B3-HEK 293 cells for CCOCCOCCOc1ccc(CCCC(C(=O)O)N2CCN(CC(=O)[O-])CCN(CC(=O)[O-])CCN(CC(=O)[O-])CC2)cc1.[Gd+3] (stereo not drawn) [Example 25] 58 % of RC1

Indicate its recorded Uptake into OATP1B3-HEK 293 cells; the compound in question is CCCOc1ccc(CC(C(=O)O)N2CCN(CC(=O)[O-])CCN(CC(=O)[O-])CCN(CC(=O)[O-])CC2)cc1.[Gd+3] (stereo not drawn) [Example 48] 11 % of RC1
